Measured On: CCR5 (Homo sapiens)
Sequence (P51681 whole entry): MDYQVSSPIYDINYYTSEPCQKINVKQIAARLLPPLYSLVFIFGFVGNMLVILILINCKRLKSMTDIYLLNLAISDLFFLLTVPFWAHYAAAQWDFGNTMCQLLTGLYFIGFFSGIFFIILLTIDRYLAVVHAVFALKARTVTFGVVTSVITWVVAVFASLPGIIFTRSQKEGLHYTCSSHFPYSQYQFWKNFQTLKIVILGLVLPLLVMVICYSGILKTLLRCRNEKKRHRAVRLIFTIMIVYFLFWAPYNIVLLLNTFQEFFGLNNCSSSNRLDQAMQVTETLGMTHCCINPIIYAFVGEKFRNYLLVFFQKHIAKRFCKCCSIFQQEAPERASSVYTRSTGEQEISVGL
Method Summary: β-arrestin selectivity assay, CCR5
Type: cell-based
Endpoint Name: IC50 (nM)

Cc1nc(Oc2c(Cl)cccc2C(N)=O)c2cc(-c3ccccc3Cl)sc2n1 ... 7200
Cc1nc(Oc2c(Cl)cccc2C(N)=O)c2c(C)c(-c3ccccc3Cl)sc2n1 ... 2100
NC(=O)c1ccccc1Oc1ncnc2sc(-c3ccccc3)cc12 ... 1900

----------
Measured On: CCR7 (Homo sapiens)
Construct: expressed in transfected cells
Sequence (P32248 25-378): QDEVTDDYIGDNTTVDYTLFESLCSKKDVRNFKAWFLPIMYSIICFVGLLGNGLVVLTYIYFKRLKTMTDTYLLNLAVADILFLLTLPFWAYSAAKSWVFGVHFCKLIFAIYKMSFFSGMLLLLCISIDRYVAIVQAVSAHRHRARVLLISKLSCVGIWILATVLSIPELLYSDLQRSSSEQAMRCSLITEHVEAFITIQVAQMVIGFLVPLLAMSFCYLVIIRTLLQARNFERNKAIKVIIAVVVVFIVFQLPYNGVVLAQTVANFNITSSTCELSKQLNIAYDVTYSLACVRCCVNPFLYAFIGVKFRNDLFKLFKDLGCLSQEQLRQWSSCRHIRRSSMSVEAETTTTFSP
Method Summary: TANGO β-arrestin antagonist assay, CCR7
Assay type: cell-based
Test Conditions: same data transformed to log units, normalized, GraphPad 6; read-out: IC50
Endpoint Name: IC50 (µM)

NC(=O)c1ccccc1Oc1ncnc2sc(-c3ccccc3)cc12 ... 9.2
